Tested on: RPMI-8226 leukemia
method-description: NCI tumour cell line growth inhibition, 48 h
Let's look at some molecules and their measured TGI.
Use µM as the unit, but write only the number.

// query # TGI lookup, item NC(=S)N1N=C2CCCCCC[C@@H]2[C@H]1c1ccccc1
// result 45

// query Another molecule to check: CO/C=C(/C(=O)OC)[C@@H]1C[C@@H]1c1ccc2ccccc2c1
// result 41.9

// query Same for COc1cc2nc(Nc3cccc(Cl)c3)nc(N)c2cc1OC
// result 5.34

// query Param item: Cc1ccc2nc3ccccc3c(C3C4C(=O)N(c5ccc(F)cc5)C(=O)C4ON3C(C(N)=O)c3ccccc3)c2c1 (stereo not given)
// result 77.6

----------
Tested on: SW-620 colon
method-description: NCI tumour cell line growth inhibition, 48 h
Each entry below lists one item and its recorded GI50 value.

Answered examples (5):
compound	GI50
C(=N\Nc1ncc(-c2cc3cc4c(cc3o2)OCO4)s1)/c1ccco1	681 nM
CC1=C([Te]c2ccccc2)C(=O)c2ccccc2C1=O	475 nM
CC1SC(c2ccccc2Cl)N(NC(=O)C(O)c2ccccc2)C1=O (stereo not drawn)	> 100000 nM
COc1ccccc1C#Cc1ccccc1C#Cc1ccc(OCCCCCCOc2ccccc2C#Cc2ccccc2C#Cc2ccccc2OC)cc1	> 100000 nM
FC1(F)ON2CCc3ccccc3C2[C@H]1c1ccccc1 (stereo partly drawn)	> 100000 nM

// query Fill blank: measured GI50 of the compound Cc1ccc(CNc2ccc3nc(CCC4CCCCC4)[nH]c3c2)cc1 is ____.
// result 1990 nM

// query Quick one: O=C1c2c(c(=O)[nH]c3ccccc23)[C@H](c2ccccc2)[C@@H]2CCCN12
// result 3380 nM

// query Similarly, COc1cc(CCC[P+](c2ccccc2)(c2ccccc2)c2ccccc2)c(OC)c2c1OCO2 ?
// result 1830 nM

----------
Tested on: OVCAR-4 ovarian
method-description: NCI tumour cell line growth inhibition, 48 h
Collected TGI values appear next to each entry.

molecule	TGI
CC1(C)Oc2ccc3ccc(=O)oc3c2C(O)C1O (stereo unspecified)	> 100 µM

// query Please look up its TGI: CC(Oc1ccc2c(-c3ccc(Cl)cc3)cc(=O)oc2c1)C(=O)O (stereo unspecified)
// result > 100 µM

// query What do we get for O=C1Nc2c(Cl)cc(Cl)cc2/C1=N/N=C/c1ccco1 ?
// result > 100 µM

// query And for Cc1ccc2c(c1)nc1n2C(c2c(F)cccc2F)SC1 (stereo unspecified) ?
// result > 100 µM

// query // next record CC(=O)O.CN1[CH-]N(Cc2ccc(C#N)cc2)c2ccccc21.[Ag+]
// result 32.8 µM

// query Another molecule to check: COc1ccc(C2CC(c3c(O)ccc4ccccc34)=NN2)cc1OC (stereo unspecified)
// result 20.8 µM

----------
Tested on: RXF-631 renal
method-description: NCI tumour cell line growth inhibition, 48 h
Each entry below carries its recorded TGI.
Express it in µM; write the number only.

compound	TGI [µM]
CCOC(=O)C1(C(=O)OCC)C(C(C)(C)C)=C(C)c2ccccc21	37.9

// query Please give the measured TGI for this compound: O=C1C2CCN(CC2)C1CN1CCOCC1 (stereo not given)
// result 31

----------
Test system: SF-295 CNS
method-description: NCI tumour cell line growth inhibition, 48 h
measured-quantity: TGI

// query For the compound COC(=O)Nc1nc2ccc(NS(=O)(=O)c3cccs3)cc2[nH]1 , what TGI is on record?
// result 70.9 µM

----------
// reported TGI per item
Tested on: U251 CNS
method-description: NCI tumour cell line growth inhibition, 48 h

Reference set (5 entries):
molecule	TGI
CC1(C)N=C(N)N=C(N)N1c1ccc(CNC(=O)Nc2ccc(S(=O)(=O)F)c(Cl)c2)c(Cl)c1	> 100 µM
C[C@H](Nc1nc(N)c(N=O)c(=O)n1C)C(=O)O	> 10 µM
COc1ccc(/C=C/c2cc(OC)c(OC(C)=O)c(OC)c2)cc1	38.4 µM
NS(=O)(=O)c1ccc(NC(=O)N/N=C/c2ccccc2[N+](=O)[O-])cc1	> 100 µM
NCCCCC(NC(=O)C(N)CCCN=C(N)N)C(=O)NC(CCCCN)C(=O)NC(CCCN=C(N)N)C(=O)NC(CCCN=C(N)N)C(=O)NC(CCC(N)=O)C(=O)NC(CCCN=C(N)N)C(=O)NC(CCCN=C(N)N)C(=O)NC(CCCN=C(N)N)C(=O)NCC(=O)NCC(=O)O (stereo not given)	> 50 µM

// query # lookup: TGI of O=C1CCCCCCC2=C1C(Sc1ccccc1)CC2 (stereo not given)
// result > 100 µM

// query Check O=S(=O)(O)c1ccc(N=Nc2ccccc2)cc1 too.
// result > 100 µM

// query Another: Cc1c(Cn2c(C)nc3c(C(=O)O)cc(N4CCOCC4)cc32)cccc1C(F)(F)F
// result > 100 µM

// query Could you do the same for Cc1cccc(-c2nnc3s/c(=C\c4ccc(N(C)C)cc4)c(=O)n23)c1 , please?
// result > 100 µM

// query Subsequent entry: CC(C)C1CSC2N1C(=O)C2(OCc1ccccc1)C1CC1 (stereo not given)
// result > 100 µM

// query Now the same for CC1=C(C#N)C23C(=O)N(c4ccccc4)C(=O)C2=C(O)C=CC3(O)N1Cc1ccc(Cl)cc1Cl (stereo not given)
// result 11.3 µM

// query // repeat for Cc1ccc2c(C(C[N+](=O)[O-])c3ccccc3)c(-c3ccccc3)[nH]c2c1 (stereo not given) and report
// result > 95 µM

// query Then what about the molecule CC(=O)OCc1c(O)c2c([nH]c1=O)CCc1ccccc1-2 ?
// result > 350 µM

// query Input c1ccc2c3c(ccc2c1)-c1[nH]ncc1CCO3
// result 51.8 µM

// query And what about the molecule COc1ccc(C(=O)/C=C/c2ccc(OCCCCCCCCCCOc3ccc(/C=C/C(=O)c4ccc(OC)cc4)cc3)cc2)cc1 ?
// result > 100 µM

// query Entry COC(=O)C1CCC(=O)N1C(c1ccc(OC)cc1)c1cc(OC)c(OC)c(OC)c1 (stereo not given) please
// result > 100 µM

----------
Tested on: 786-0 renal
method-description: NCI tumour cell line growth inhibition, 48 h
measured-quantity: TGI (µM)
Please state the figure in µM; there is no need to write the unit.

compound	measured-quantity	numeric-value
CC(C)(C)C1=C(Br)C(F)(C(C)(C)C)OP1(=O)c1ccccc1 (stereo not given)	TGI	29.6

Next:
// query # get_value(readout='TGI', item= CC1=C([Te]c2ccccc2)C(=O)c2ccccc2C1=O )
// result 3.96

----------
Known TGI of a selection of molecules
Test system: NCI-H460 lung
method-description: NCI tumour cell line growth inhibition, 48 h

// query Please look up its TGI: COc1ccc(S(=O)(=O)Nc2ccc(-c3csc(N4C(=O)/C(=C/c5ccccc5[N+](=O)[O-])N=C4c4ccccc4)n3)cc2)cc1Cl
// result > 100 µM

// query What do you get for CCSC[C@@H]1C[C@](O)(c2ccc(Cl)cc2)[C@@H](c2ccc(Cl)cc2)O1 ?
// result 34.1 µM

// query Follow-up entry: CCN(CC)CCN(CC)CC.CCN(CC)CCN(CC)CC.[Cu+2].[Cu+2].[O-][Cl+3]([O-])([O-])[O-].[OH3+].[OH3+]
// result 37.6 µM

// query // next record NC(=S)N1N=C2CCCCCC[C@@H]2[C@H]1c1ccccc1
// result > 100 µM

// query And what about the molecule NC(=O)CC1OC(=O)Cc2cc3c(c(O)c21)C(=O)c1c(O)cccc1C3=O (stereo not given) ?
// result > 100 µM

// query Now the molecule CCCCN(CC)C(=O)C(=O)Cc1nc2ccc(C(=O)c3ccccc3)cc2[nH]c1=O
// result > 100 µM

// query And c1ccc(SC(Sc2ccccc2)=C2CCC2)cc1 ?
// result > 100 µM

// query Can you handle S=P1(Sc2ccccc2)Oc2ccc3ccccc3c2-c2c(ccc3ccccc23)O1 next?
// result > 100 µM

// query And what about the molecule CCOC(=O)C1(C(=O)OCC)C(C(C)(C)C)=C(C)c2ccccc21 ?
// result 26.3 µM

// query Same for O=C1CCCCCCC2=C1C(Sc1ccccc1)CC2 (stereo not given)
// result > 100 µM

----------
Listed here are compounds together with their documented TGI.
System: LOX IMVI melanoma
method-description: NCI tumour cell line growth inhibition, 48 h

Worked cases, answers included:
compound	result
O=C(Cc1ccc2ccccc2c1)NCc1ccc(C(=O)NCCc2ccccc2)cc1	> 100 µM
CC(=O)O.CN1[CH-]N(Cc2ccc(C#N)cc2)c2ccccc21.[Ag+]	36.2 µM
COC(=O)Nc1nc2ccc(NS(=O)(=O)c3cccs3)cc2[nH]1	> 100 µM
CC(C)(C)c1ccc2c(c1)OP1(Oc3c(Cl)cc(Cl)c4cccnc34)(O2)Oc2ccc(C(C)(C)C)cc2O1	19.2 µM
COc1ccc(/C=N\N(C)Cc2cccc3ccsc23)cc1	> 100 µM

// query Record request: TGI value, item Nc1ncnc2c1ncn2[C@H]1C=C[C@@H](NO)C1
// result > 100 µM

// query Another compound to check: COC(=O)CCC(=O)Nc1ccc(Cl)cc1C
// result > 100 µM

// query Repeat for the following compound: CC1C(C)(C)C23CC12C1(OCCO1)C3Br (stereo unspecified)
// result > 100 µM

// query // query: C#C[C@]1(O)CC[C@H]2[C@@H]3CCC4=C/C(=N\OCCN5CCCCC5)CC[C@]4(C)[C@H]3CC[C@@]21C
// result 16.5 µM

// query Consider next the compound CCCn1cc2c(=O)[nH]c(SC)nc2n1 in the same way.
// result > 100 µM

// query Try this compound too: O=S(=O)(O)c1ccc(N=Nc2ccccc2)cc1
// result > 100 µM
